These entries and their values trace back to ChEMBL document CHEMBL1129475.

Reported IC50 values for the following compounds.
System: SK-OV-3
Test: Human tumor cell cytotoxicity assay was performed using MTT (SK-OV3 cell line )
Assay type: functional, cell-based
Enter your answer as a number in nM; do not include the unit.

- structure-smiles-string: "CC[C@@]1(O)C(=O)OCc2c1cc1n(c2=O)Cc2c-1nc1cc3c(cc1c2C[n+]1ccncc1)OCO3"
  IC50 / nM: 6

*Q* Recall and state the measured IC50 for CC[C@@]1(O)C(=O)OCc2c1cc1n(c2=O)Cc2c-1nc1cc3c(cc1c2C[n+]1ccccn1)OCCO3 .
*A* 69

*Q* Identify IC50 associated with the compound CC[C@@]1(O)C(=O)OCc2c1cc1n(c2=O)Cc2c-1nc1cc3c(cc1c2Cn1cc[n+](C)c1)OCO3
*A* 110

*Q* Name the recorded IC50 of the compound listed here: CC[C@@]1(O)C(=O)OCc2c1cc1n(c2=O)Cc2c-1nc1cc3c(cc1c2C[n+]1ccncc1)OCCO3
*A* 11

*Q* Please report IC50 for the following compound: CC[C@@]1(O)C(=O)OCc2c1cc1n(c2=O)Cc2c-1nc1cc3c(cc1c2C[n+]1ccccc1)OCO3
*A* 74

*Q* Complete the entry with IC50 for CC[C@@]1(O)C(=O)OCc2c1cc1n(c2=O)Cc2c-1nc1cc3c(cc1c2C[n+]1ccccc1)OCCO3
*A* 85

*Q* Please give the documented IC50 of CC[C@@]1(O)C(=O)OCc2c1cc1n(c2=O)Cc2c-1nc1cc3c(cc1c2C[n+]1cccc(CO)c1)OCO3
*A* 11

*Q* Give reported IC50 value for CC[C@@]1(O)C(=O)OCc2c1cc1n(c2=O)Cc2c-1nc1cc3c(cc1c2C[n+]1ccccn1)OCO3
*A* 83

---

Overview of recorded MTD for various compounds
Organism: Mus musculus
Assay: Maximally tolerated dose that caused <=30% body weight loss in mice
Format: functional
Give just the number in mg/kg; leave the unit off.

- structure-smiles-string: "CC[C@@]1(O)C(=O)OCc2c1cc1n(c2=O)Cc2c-1nc1cc3c(cc1c2Cn1cc[n+](C)c1)OCO3"
  MTD / mg/kg: 100
- structure-smiles-string: "CC[C@@]1(O)C(=O)OCc2c1cc1n(c2=O)Cc2c-1nc1cc3c(cc1c2C[n+]1ccncc1)OCO3"
  MTD / mg/kg: 80
- structure-smiles-string: "CC[C@@]1(O)C(=O)OCc2c1cc1n(c2=O)Cc2cc3c(CN(C)C)c(O)ccc3nc2-1"
  MTD / mg/kg: 54

*Q* Fill in reported MTD for this entry: CC[C@@]1(O)C(=O)OCc2c1cc1n(c2=O)Cc2c-1nc1cc3c(cc1c2C[n+]1ccncc1)OCCO3
*A* 100

---

Test system: SK-VLB
Experiment: Human tumor cell cytotoxicity assay was performed using MTT (SKVLB cell line )
Assay type: functional, cell-based
Measured pIC50, listed per entry.
Quick note: pIC50 values are minus log10 of concentrations in mol/L.

- structure-smiles-string: "CC[C@@]1(O)C(=O)OCc2c1cc1n(c2=O)Cc2c-1nc1cc3c(cc1c2C[n+]1cccc(CO)c1)OCO3"
  pIC50: 7.64

*Q* Consider the compound CC[C@@]1(O)C(=O)OCc2c1cc1n(c2=O)Cc2c-1nc1cc3c(cc1c2C[n+]1ccccn1)OCO3 and give its recorded pIC50.
*A* 6.89

*Q* Fill in reported pIC50 for this entry: CC[C@@]1(O)C(=O)OCc2c1cc1n(c2=O)Cc2c-1nc1cc3c(cc1c2C[n+]1ccccc1)OCCO3
*A* 7.08

*Q* Complete the entry with pIC50 for CC[C@@]1(O)C(=O)OCc2c1cc1n(c2=O)Cc2c-1nc1cc3c(cc1c2C[n+]1ccccn1)OCCO3
*A* 7.03

*Q* For the compound CC[C@@]1(O)C(=O)OCc2c1cc1n(c2=O)Cc2c-1nc1cc3c(cc1c2C[n+]1ccncc1)OCCO3 , give its reported pIC50.
*A* 6.06

*Q* For CC[C@@]1(O)C(=O)OCc2c1cc1n(c2=O)Cc2c-1nc1cc3c(cc1c2Cn1cc[n+](C)c1)OCO3 , write its pIC50.
*A* 6.00

*Q* Entry CC[C@@]1(O)C(=O)OCc2c1cc1n(c2=O)Cc2c-1nc1cc3c(cc1c2C[n+]1ccccc1)OCO3 needs its pIC50 filled in; supply it.
*A* 7.14

*Q* Determine from records and report pIC50 for CC[C@@]1(O)C(=O)OCc2c1cc1n(c2=O)Cc2c-1nc1cc3c(cc1c2C[n+]1ccncc1)OCO3
*A* 7.64
